Experimental details: Persistence of microbubbles in water at 37° C. observed by ultrasound scan
Format: physicochemical
Condition summary: about 100 micron microbubbles, 20% sorbitol, added to water at 37° C., 5 MHz ultrasound
Measurement type: PERSISTENCE of microbubbles (min)
Note: unit min is implicit; provide only the numeric part.

Per the records, this compound ( CCC [Propane] ) has PERSISTENCE of microbubbles equal to 3.2

Per the record, CCOCC [Ethyl ether] has PERSISTENCE of microbubbles of 0.1

Measured PERSISTENCE of microbubbles, CCCCC [Pentane] : 20.6

In plain terms, [He] [Helium] has a documented PERSISTENCE of microbubbles of 2.0

Where do the numbers come from? From patent US6875420B1.
